biological target: DGKζ (Homo sapiens (Human)); assay: Biochemical DGK IC50 assay, DGKζ ADP-Glo assay; settings: 0.5 nM enzyme, 140 μM ATP, 80 μM DAG; read-out: DGKζ ADP-Glo assay IC50
Sequence (Q13574 other isoform, or with tags, fused parts or gaps): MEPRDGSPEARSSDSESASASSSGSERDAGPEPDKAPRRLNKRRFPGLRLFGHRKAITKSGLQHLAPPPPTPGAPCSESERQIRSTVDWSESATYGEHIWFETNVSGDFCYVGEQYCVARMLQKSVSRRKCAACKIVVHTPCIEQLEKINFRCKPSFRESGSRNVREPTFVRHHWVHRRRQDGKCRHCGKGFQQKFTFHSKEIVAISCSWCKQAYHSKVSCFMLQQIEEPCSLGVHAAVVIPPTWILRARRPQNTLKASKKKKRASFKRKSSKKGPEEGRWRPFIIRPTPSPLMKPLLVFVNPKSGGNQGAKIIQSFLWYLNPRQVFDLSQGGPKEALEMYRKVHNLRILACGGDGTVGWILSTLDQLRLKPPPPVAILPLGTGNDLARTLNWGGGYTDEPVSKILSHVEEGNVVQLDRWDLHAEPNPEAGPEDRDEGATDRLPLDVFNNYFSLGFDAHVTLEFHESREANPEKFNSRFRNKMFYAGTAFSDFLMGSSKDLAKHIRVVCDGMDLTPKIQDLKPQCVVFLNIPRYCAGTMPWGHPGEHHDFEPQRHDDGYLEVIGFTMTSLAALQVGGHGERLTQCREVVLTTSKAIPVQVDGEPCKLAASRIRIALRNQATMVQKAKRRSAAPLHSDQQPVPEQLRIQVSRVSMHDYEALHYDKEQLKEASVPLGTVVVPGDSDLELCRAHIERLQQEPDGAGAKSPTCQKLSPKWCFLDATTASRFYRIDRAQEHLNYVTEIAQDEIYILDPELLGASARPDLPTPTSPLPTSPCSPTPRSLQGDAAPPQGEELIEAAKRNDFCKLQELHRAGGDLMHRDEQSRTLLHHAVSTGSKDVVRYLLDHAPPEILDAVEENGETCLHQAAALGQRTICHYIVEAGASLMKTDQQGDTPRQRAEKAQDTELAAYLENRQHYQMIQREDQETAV
pIC50: −log10 of the molar value.
outcome.measure: pIC50

compound | measurement.target | pIC50
CC(c1ccc2nccnc2c1)N1C[C@H](C)N(c2cc(=O)[nH]c3cn(CC#N)nc23)C[C@H]1C (stereo partly drawn) [Compound A102] | DGKζ (Homo sapiens (Human)) | 6.54
CC[C@H]1CN(C(C)c2ccc(F)cc2F)[C@H](CC)CN1c1cc(=O)n(C)c2cn(CC#N)nc12 (single isomer, unassigned) [Compound A132b] | DGKζ (Homo sapiens (Human)) | 5.75
CC[C@H]1CN(C(C)c2ccc(C)cn2)[C@H](CC)CN1c1cc(=O)n(C)c2cn(CC#N)nc12 (stereo partly drawn) [Compound A346] | DGKζ (Homo sapiens (Human)) | 6.25

I. CC[C@H]1CN(C(C)c2ccc(Cl)cc2C(F)(F)F)[C@H](CC)CN1c1cc(=O)n(C)c2cn(CC#N)nc12 (stereo partly drawn) [Compound A277]
II. CC[C@H]1CN(C(C)c2ncc(Cl)n2CC)[C@H](CC)CN1c1cc(=O)n(C)c2cn(CC#N)nc12 (single isomer, unassigned) [Compound A187b]
III. CC[C@H]1CN(C(C)c2ccc(C(=O)N3CCC(F)(F)CC3)cc2)[C@H](CC)CN1c1cc(=O)n(C)c2cn(CC#N)nc12 (stereo partly drawn) [Compound A382]
Task: // sort entries: pIC50, high to low The reply should contain the labels ordered as requested.
Result: II, III, I

* * *

As a worked illustration, we turn to IC50 data collected for DGKα (Homo sapiens (Human), UniProt P23743).
outcome.measure: IC50 (nM)

compound | IC50 [nM]
CC[C@H]1CN(C(C)c2ccc(C(N)=O)cc2)[C@H](CC)CN1c1cc(=O)n(C)c2cn(CC#N)nc12 (single isomer, unassigned) [Compound A120b] | 2260
CC[C@H]1CN(C(C)c2ccccn2)[C@H](CC)CN1c1cc(=O)n(C)c2cn(CC#N)nc12 (stereo partly shown) | 13
C[C@@H]1CN(c2cc(=O)n(C)c3cn(CC#N)nc23)[C@@H](C)CN1[C@@H](C)c1ccc2nccnc2c1 | 4800
CC[C@H]1CN(C(C)c2cnn(CC)c2C(F)(F)F)[C@H](CC)CN1c1cc(=O)n(C)c2cn(CC#N)nc12 (single isomer, unassigned) [Compound A119a] | 8090
CC[C@H]1CN(C(C)c2c(F)cccc2F)[C@H](CC)CN1c1cc(=O)n(C)c2cn(CC#N)nc12 (stereo partly shown) | 81
CC[C@H]1CN(C(C)c2cnc(C)cn2)[C@H](CC)CN1c1cc(=O)n(C)c2cn(CC#N)nc12 (stereo partly shown) | 635

A. CC[C@H]1CN(C(C)c2ncc(Cl)n2CC)[C@H](CC)CN1c1cc(=O)n(C)c2cn(CC#N)nc12 (single isomer, unassigned) [Compound A187a]
B. CC[C@H]1CN(C(C)c2ccc3ccccc3n2)[C@H](CC)CN1c1cc(=O)n(C)c2cn(CC#N)nc12 (stereo partly shown)
C. CC[C@H]1CN(C(C)c2ccc(F)nc2)[C@H](CC)CN1c1cc(=O)n(C)c2cn(CC#N)nc12 (single isomer, unassigned) [Compound A353a]
Task: // sort entries: IC50, high to low The reply should contain the labels ordered as requested.
Result: A, B, C

* * *

biological target: UniProt:Q13574; test: Biochemical DGK IC50 assay, DGKζ ADP-Glo assay; conditions: 0.5 nM enzyme, 140 μM ATP, 80 μM DAG; read-out: DGKζ ADP-Glo assay IC50
pIC50: −log10 of the molar value.
outcome.measure: pIC50

molecule | pIC50
CC[C@@H]1CN(c2cc(=O)n(C)c3cn(CC#N)nc23)[C@@H](C)CN1C(C)c1ccc2nccnc2c1 (mixture of isomers) [Compound A97] | 9.00
CC#CCn1cc2c(n1)c(N1C[C@@H](CC)N(C(C)c3ccc(F)cc3C(F)(F)F)C[C@@H]1CC)cc(=O)n2C (single isomer, unassigned) [Compound A238b] | 6.59

1. CC[C@H]1CN(C(C)c2ccc3ncn(C)c3c2)[C@H](CC)CN1c1cc(=O)n(C)c2cn(CC#N)nc12 (stereo partly shown) [Compound A64]
2. CC#CCn1cc2c(n1)c(N1C[C@@H](C)N(C(C)c3ccc4nccnc4c3)C[C@@H]1C)cc(=O)n2C (mixture of isomers) [Compound A22]
Task: Given the listed records, identify the one among 1 and 2 with higher pIC50. Lab log: write the label of the selected item as the result.
Result: 2
(2: 7.03, 1: 6.64)

* * *

As a worked illustration, we turn to IC50 data collected for DGKα (Homo sapiens (Human), UniProt P23743).
outcome.measure: IC50 (µM)

molecule | measurement.target | IC50 / µM
CC(c1ccc2nccnc2c1)N1C[C@H](C)N(c2nc(=O)n(C)c3cn(CC#N)nc23)C[C@H]1C (single isomer, unassigned) [Compound A220] | DGKα (Homo sapiens (Human), UniProt P23743) | 8.69

A. CC(c1ccc2ncc(CO)nc2c1)N1C[C@H](C)N(c2cc(=O)n(C)c3cn(CC#N)nc23)C[C@H]1C (single isomer, unassigned) [Compound A309b]
B. C=CCCn1cc2c(n1)c(N1C[C@@H](C)N(C(C)c3ccc4nccnc4c3)C[C@@H]1C)cc(=O)n2C (single isomer, unassigned) [Compound A300]
Task: // which entry reports the smaller IC50, A or B ? Lab log: write the label of the selected item as the result.
Result: B
(B: 54 µM, A: 87 µM)

* * *

target: DGKζ (Homo sapiens (Human)); test: Biochemical DGK IC50 assay, DGKζ ADP-Glo assay; details: 0.5 nM enzyme, 140 μM ATP, 80 μM DAG; read-out: DGKζ ADP-Glo assay IC50
pIC50: −log10 of the molar value.
outcome.measure: pIC50

These recorded examples may help you get a feel for the data.
molecule | pIC50
CC[C@H]1CN(C(C)c2ccc(OCC3COC3)cc2)[C@H](CC)CN1c1cc(=O)n(C)c2cn(CC#N)nc12 (stereo partly shown) | 6.24
COc1cc(F)c(C(C)N2C[C@H](C)N(c3cc(=O)n(C)c4cn(CC#N)nc34)C[C@H]2C)cc1F (stereo partly shown) | 5.92
CC[C@H]1CN(C(C)c2ccn3ncnc3c2)[C@H](CC)CN1c1cc(=O)n(C)c2cn(CC#N)nc12 (stereo partly shown) | 6.70
CC[C@H]1CN(C(C)c2ccc3nccnc3c2)[C@H](C)CN1c1cc(=O)n(C)c2cn(CC#N)nc12 (single isomer, unassigned) [Compound A98a] | 7.82

A. COc1c(C(C)N2C[C@H](C)N(c3cc(=O)n(C)c4cn(CC#N)nc34)C[C@H]2C)ccc(F)c1F (stereo partly shown)
B. CC[C@H]1CN(C(C)c2ccc(CN3CCOC(C)(C)C3)cc2)[C@H](CC)CN1c1cc(=O)n(C)c2cn(CC#N)nc12 (stereo partly shown)
Task: Given the listed records, identify the one among A and B with higher pIC50. Lab log: write the label of the selected item as the result.
Result: B
(B: 6.45, A: 5.26)

I. CC[C@H]1CN(C(C)c2ccnn2CC(F)F)[C@H](CC)CN1c1cc(=O)n(C)c2c[nH]nc12 (stereo partly shown)
II. CC[C@H]1CN(C(C)c2ccc(C)nc2)[C@H](CC)CN1c1cc(=O)n(C)c2cn(CC#N)nc12 (single isomer, unassigned) [Compound A349a]
Task: Given the listed records, identify the one among I and II with higher pIC50. Lab log: write the label of the selected item as the result.
Result: II

I. CC[C@H]1CN(C(C)c2ccc(F)cc2NC)[C@H](CC)CN1c1cc(=O)n(C)c2cn(CC#N)nc12 (stereo partly shown)
II. CC[C@H]1CN(C(C)c2ccc(OC(C)C)cn2)[C@H](CC)CN1c1cc(=O)n(C)c2cn(CC#N)nc12 (stereo partly shown)
Task: Given the listed records, identify the one among I and II with higher pIC50. Lab log: write the label of the selected item as the result.
Result: II
(II: 6.72, I: 5.35)

* * *

As a worked illustration, we turn to pIC50 data collected for DGKα (Homo sapiens (Human)).
pIC50: −log10 of the molar value.
outcome.measure: pIC50

These recorded examples may help you get a feel for the data.
compound | pIC50
CC[C@H]1CN(C(C)c2ccc(C)cc2)[C@H](CC)CN1c1cc(=O)n(C)c2cn(CC#N)nc12 (single isomer, unassigned) [Compound A127b] | 6.75
Cc1ccc(C(c2ccc(C)cc2)N2C[C@H](C)N(c3cc(=O)n(C)c4cn(CC#N)nc34)C[C@H]2C)cc1 [Compound A333] | 4.97
CC(c1ccc2nccnc2c1)N1C[C@H](C)N(c2cc(=O)n(C)c3cn(C4CC4)nc23)C[C@H]1C (stereo partly shown) [Compound A17] | 5.05
CC[C@H]1CN(C(C)c2cn(C)nc2C(F)(F)F)[C@H](CC)CN1c1cc(=O)n(C)c2cn(CC#N)nc12 (stereo partly shown) [Compound A232] | 5.07
CC[C@H]1CN(C(C)c2cc3ccccc3c(C)n2)[C@H](CC)CN1c1cc(=O)n(C)c2cn(CC#N)nc12 (stereo partly shown) [Compound A367] | 4.71

I. CC[C@H]1CN(C(C)c2ncc(C(F)(F)F)cc2F)[C@H](CC)CN1c1cc(=O)n(C)c2cn(CC#N)nc12 (single isomer, unassigned) [Compound A354a]
II. CC[C@H]1CN(C2CCc3ccccc32)[C@H](CC)CN1c1cc(=O)n(C)c2cn(CC#N)nc12 (single isomer, unassigned) [Compound A149b]
Task: // which entry reports the smaller pIC50, I or II ? Lab log: write the label of the selected item as the result.
Result: I
